- Test system: blackgrass
- assay-name: Test B pre/postemergence blackgrass
- Format: in vivo, Alopecurus myosuroides
- details: Preemergence, Rate 62 g/ha; scale of 0 to 10 where 0 is no effect and 10 is complete control
This listing pairs compounds with measured Plant response rating, Blackgrass.

| compound | Plant response rating, Blackgrass |
| --- | --- |
| COC(=O)CCCn1c(=O)on(C(=O)N(c2ccc(F)cc2F)C(C)C)c1=O | 1 |
| CC(C)N(C(=O)n1oc(=O)n(C(C)C(=O)c2ccccc2)c1=O)c1ccc(F)cc1F (centres unmarked) | 0 |
| Cc1nc(C)c(C(C)n2c(=O)on(C(=O)N(c3ccccc3)C(C)C)c2=O)s1 (centres unmarked) | 0 |
| CC(C)N(C(=O)n1oc(=O)n(C(C)C(=O)N(C)C)c1=O)c1ccccc1 (centres unmarked) | 2 |
| CC(C)N(C(=O)n1oc(=O)n(CCCCF)c1=O)c1ccc(F)cc1F | 4 |

---

- System: soybean
- assay-name: Test B pre/postemergence soybean
- Format: in vivo, Glycine max
- details: Rate 62 g/ha, Postemergence; scale 0 to 10 (0 no effect, 10 complete control)
This listing pairs compounds with measured Soybean plant response rating.

| compound | Soybean plant response rating |
| --- | --- |
| CC(=O)NCn1c(=O)on(C(=O)N(c2ccc(F)cc2)C(C)C)c1=O [Compound 473] | 1 |
| CC(C)N(C(=O)n1oc(=O)n(CO)c1=O)c1ccc(F)cc1 [Compound 470] | 0 |
| Cc1ccc(N(C(=O)n2oc(=O)n(-c3ccc4ccccc4c3)c2=O)C(C)C)cc1 [Compound 334] | 1 |
| COC(Cn1c(=O)on(C(=O)N(c2ccc(F)cc2)C(C)C)c1=O)OC [Compound 317] | 3 |
| CC(C)N(C(=O)n1oc(=O)n(CC(=O)C2CC2)c1=O)c1ccccc1 [Compound 489] | 3 |

---

This listing pairs compounds with measured Corn plant response rating.
- Tested on: corn
- assay-name: Test B pre/postemergence corn
- Format: in vivo, Zea mays
- details: Postemergence, Rate 250 g/ha; scale of 0 to 10, 0 is no effect, 10 is complete control

| compound | Corn plant response rating |
| --- | --- |
| CC[C@H](C)n1c(=O)on(C(=O)N(c2ccc(Cl)cc2)C(C)C)c1=O [Compound 664] | 0 |
| C=C(Cc1ccccc1)Cn1c(=O)on(C(=O)N(c2ccccc2)C(C)C)c1=O [Compound 650] | 2 |
| CC(C)N(C(=O)n1oc(=O)n(CC2CCCCO2)c1=O)c1ccccc1 (stereo not drawn) [Compound 659] | 4 |
| CCOP(=O)(Cn1c(=O)on(C(=O)N(c2ccc(Cl)cc2)C(C)C)c1=O)OCC [Compound 599] | 0 |
| CC[C@H](C)n1c(=O)on(C(=O)N(c2ccc(F)cc2F)C(C)C)c1=O [Compound 666] | 0 |
| COCCn1c(=O)on(C(=O)N(c2ccc(F)cc2)C(C)C)c1=O [Compound 627] | 7 |

---

- Tested on: soybean
- assay-name: Test B pre/postemergence soybean
- Type: in vivo, Glycine max
- details: Postemergence, Rate 250 g/ha; scale of 0 to 10, 0 is no effect, 10 is complete control

| test-smiles | Soybean plant response rating |
| --- | --- |
| CC(C)N(C(=O)n1oc(=O)n(CC[N+](=O)[O-])c1=O)c1ccc(F)cc1F | 2 |
| CC(C)N(C(=O)n1oc(=O)n(CC(=O)N(C)C)c1=O)c1ccccc1 | 4 |
| CC(C)N(C(=O)n1oc(=O)n(CCCC(F)(F)F)c1=O)c1ccccc1 | 4 |
| CC(C)N(C(=O)n1oc(=O)n(C(CF)CF)c1=O)c1ccc(F)cc1F | 4 |
| C=C(Cl)Cn1c(=O)on(C(=O)N(c2ccc(F)cc2F)C(C)C)c1=O | 3 |

---

- Test system: rape
- assay-name: Test B pre/postemergence rape
- Format: in vivo, Brassica napus
- details: Postemergence, Rate 125 g/ha; scale of 0 to 10 where 0 is no effect and 10 is complete control

| test-smiles | system | Plant response rating, Rape |
| --- | --- | --- |
| CCC=CCn1c(=O)on(C(=O)N(c2ccccc2)C(C)C)c1=O | rape | 0 |
| C=C(C)Cn1c(=O)on(C(=O)N(c2ccccc2)C(C)C)c1=O | rape | 0 |
| CC(C)N(C(=O)n1oc(=O)n(CC2CCC2)c1=O)c1ccccc1 | rape | 6 |
| CC(C)N(C(=O)n1oc(=O)n(CNC(=O)c2ccccc2)c1=O)c1ccccc1 | rape | 0 |

---

- Tested on: sandbur
- assay-name: Test D sandbur
- Format: in vivo, Cenchrus echinatus
- details: Rate 32 g/ha; Preemergence; 0 to 100 scale, 0 no injury, 100 complete control
- Text: […] Test chemicals were formulated in a non-phytotoxic solvent mixture which included a surfactant and applied preemergence to the surface of the pot containing seeds in a sandy loam soil. Untreated control pots and treated pots were placed in the greenhouse for growth and visually evaluated for injury 14 to 21 days after herbicide application. […]
recorded-metric: Plant response rating, Sandbur

| test-smiles | measured-value |
| --- | --- |
| C=CCn1c(=O)on(C(=O)N(c2ccc(F)cc2F)C(C)C)c1=O | 20 |
| CC(C)N(C(=O)n1oc(=O)n(C2CCCCC2)c1=O)c1ccc(F)cc1F | 0 |
| C=CCn1c(=O)on(C(=O)N(c2ccc(Cl)cc2)C(C)C)c1=O | 0 |
| Cc1cccc(C)c1-n1c(=O)on(C(=O)N(c2ccc(F)cc2)C(C)C)c1=O | 0 |

---

- Tested on: giant foxtail
- assay-name: Test B pre/postemergence giant foxtail
- Format: in vivo, Setaria faberii
- details: Preemergence, Rate 250 g/ha; scale 0 to 10, 0 is no effect, 10 is complete control

| test-smiles | Giant foxtail plant response rating |
| --- | --- |
| COc1nc(OC)nc(N(C(=O)n2oc(=O)n(-c3ccccc3C)c2=O)C(C)C)n1 | 0 |
| Cc1ccccc1-n1c(=O)on(C(=O)N(c2ccc(Cl)cc2Cl)C(C)C)c1=O | 9 |
| CC(C)N(C(=O)n1oc(=O)n(CCl)c1=O)c1ccccc1 | 3 |
| CC(C)N(C(=O)n1oc(=O)n(C(C)C)c1=O)c1ccc(F)cc1 | 10 |

---

- System: morningglory
- assay-name: Test B pre/postemergence morningglory
- Format: in vivo, Ipomoea hederacea
- details: Postemergence, Rate 125 g/ha; scale 0 to 10, 0 is no effect, 10 is complete control
recorded-metric: Plant response rating, Morningglory

| molecule | recorded-metric | measured-value |
| --- | --- | --- |
| Cc1nsc(Cl)c1Cn1c(=O)on(C(=O)N(c2ccccc2)C(C)C)c1=O | Plant response rating, Morningglory | 5 |
| CC(C)N(C(=O)n1oc(=O)n(CCl)c1=O)c1ccc(F)cc1 | Plant response rating, Morningglory | 0 |
| CC1CC1n1c(=O)on(C(=O)N(c2ccc(Cl)cc2)C(C)C)c1=O (stereo not drawn) | Plant response rating, Morningglory | 10 |
| Cc1c(-n2c(=O)on(C(=O)N(c3ccc(Cl)cc3)C(C)C)c2=O)ccc2ccccc12 | Plant response rating, Morningglory | 0 |
| CC(C)N(C(=O)n1oc(=O)n(CCC#N)c1=O)c1ccc(F)cc1 | Plant response rating, Morningglory | 3 |
| Cc1ccc(N(C(=O)n2oc(=O)n(-c3ccc4ccccc4c3)c2=O)C(C)C)cc1 | Plant response rating, Morningglory | 0 |

---

- Test system: rape
- assay-name: Test B pre/postemergence rape
- Format: in vivo, Brassica napus
- details: Postemergence, Rate 250 g/ha; scale of 0 to 10, 0 is no effect, 10 is complete control
This listing pairs compounds with measured Rape plant response rating.
recorded-metric: Rape plant response rating

| test-smiles | recorded-metric | measured-value |
| --- | --- | --- |
| CC(C)N(C(=O)n1oc(=O)n(CNC(=O)c2ccccc2)c1=O)c1ccccc1 | Rape plant response rating | 0 |
| CC(C)N(C(=O)n1oc(=O)n(C(CF)CF)c1=O)c1ccc(F)cc1F | Rape plant response rating | 2 |
| C=C(Cl)Cn1c(=O)on(C(=O)N(c2ccc(F)cc2F)C(C)C)c1=O | Rape plant response rating | 0 |

---

This listing pairs compounds with measured Giant foxtail plant response rating.
- Test system: giant foxtail
- assay-name: Test B pre/postemergence giant foxtail
- Assay type: in vivo, Setaria faberii
- details: Postemergence, Rate 125 g/ha; scale of 0 to 10 where 0 is no effect and 10 is complete control

| compound | Giant foxtail plant response rating |
| --- | --- |
| C#CC=CC(C)(C)n1c(=O)on(C(=O)N(c2ccccc2)C(C)C)c1=O | 7 |
| CCCn1c(=O)on(C(=O)N(c2ccc(F)cc2F)C(C)C)c1=O | 9 |
| C=CCn1c(=O)on(C(=O)N(c2ccc(Cl)cc2)C(C)C)c1=O | 3 |
| C#CC(C)n1c(=O)on(C(=O)N(c2ccc(Cl)cc2)C(C)C)c1=O (racemic) | 3 |
| CC(C)N(C(=O)n1oc(=O)n(Cc2ccccc2Cl)c1=O)c1ccc(F)cc1 | 1 |
| CC[C@H](C)n1c(=O)on(C(=O)N(c2ccc(Cl)cc2)C(C)C)c1=O | 6 |
| CCCn1c(=O)on(C(=O)N(c2ccc(F)cc2)C(C)C)c1=O | 8 |
| COC(=O)C(CCO)n1c(=O)on(C(=O)N(c2ccc(F)cc2)C(C)C)c1=O (stereo not shown) | 0 |
| Cc1nn(C)c(Cl)c1-n1c(=O)on(C(=O)N(c2ccccc2)C(C)C)c1=O | 1 |
| Cc1nc(C(C)n2c(=O)on(C(=O)N(c3ccc(F)cc3)C(C)C)c2=O)sc1C (stereo not shown) | 2 |
